The reported numbers originate from patent US20250340659A1.

Known GEO mean difference of a selection of binders
Molecular target: T1, canine OX40L, full length membrane form, expressed on HEK293 cells (canine)
T1 construct: also called OX40L expressing HEK; HEK OX40L cells
T1 chain: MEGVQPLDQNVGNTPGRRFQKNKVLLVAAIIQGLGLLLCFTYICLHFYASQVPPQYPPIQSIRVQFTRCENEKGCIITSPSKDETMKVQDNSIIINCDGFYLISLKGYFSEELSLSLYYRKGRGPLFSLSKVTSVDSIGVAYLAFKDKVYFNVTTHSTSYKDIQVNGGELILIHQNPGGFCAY
Experiment: flow cytometry, OX40L HEK minus WT HEK
Returns: the value as a bare number; no unit string appended.

>  <BINDER>
PMX154 (antibody, V domains shown) VH: EVQLVESGGDLVKPEGSLRLSCVVSGFTFSGFDMSWVRQAPGKGLQWVAYISTDGRSTGYTDAVKGRFTISRDNVKNTLYLQMNSLRTEDTAVYYCAKETRHWGFDYWGQGTLVIVSS VL: SYVLTQLSSVSVSLRQTAHITCGGDSIGRKNVYWHQQKLGRAPILIIYDDSSRPSGIPERFSGANSGNTATLTISGALAEDEAAYYCQVWDSSTSVFGGGTHLTVL

>  <OBSERVED_MEASUREMENT>
781000

$$$$

The binder listed as PMX084 (antibody, V domains shown, also called PMX84) VH: EVQLVESGGDLVKPEGSLRLSCVVSGFTFSNYDMSWVRQAPGKGLQWVAFISNDGRITGYTDAVEGRFTISRDNAKNTLYLQMNSLRTEDTAVYYCAKETSRWGFDYWGQGTLVTVSS VL: SYVLTQLPSVSVTLRQTARITCGGDSIGSKNVYWHQQKLGQAPVLIIYDDSSRPSGIPERFSGANSGNTATLTISGALAEDEADYYCQVWDSSTSVFGGGTHLTVL has a reported GEO mean difference of 610000

Lab note: measured GEO mean difference of PMX108 (antibody, V domains shown) VH: EVQLVESGGDLVRPGGSLRLSCVASGFTFTNYHMSWVRQAPGKGLQWVAFINSGGSSTTYTDVVRGRFTISRDYAKNTLYLQMNSLTAEDTAVYYCASGAIWTHFDHWGQGTLVTVSS VL: SFVLTQLPSVSVTLRQTARITCGGDSVGSKSVYWYQQKLGQAPVLIIYRDSNRPTGIPERFSGASSGNTATLTISGALAEDEADYYCQVWDNSNKAIFGGGTHLTVL was 607000
